Test: Binding affinity to T-type voltage gated calcium channel
property: IC50

Record CN1CCN(c2cc(-c3ccc(C#N)cc3)nc(N)n2)CC1 , field IC50: > 10 µM

###

Target: Histamine H4 receptor (Homo sapiens)
Sequence (Q9H3N8 whole entry): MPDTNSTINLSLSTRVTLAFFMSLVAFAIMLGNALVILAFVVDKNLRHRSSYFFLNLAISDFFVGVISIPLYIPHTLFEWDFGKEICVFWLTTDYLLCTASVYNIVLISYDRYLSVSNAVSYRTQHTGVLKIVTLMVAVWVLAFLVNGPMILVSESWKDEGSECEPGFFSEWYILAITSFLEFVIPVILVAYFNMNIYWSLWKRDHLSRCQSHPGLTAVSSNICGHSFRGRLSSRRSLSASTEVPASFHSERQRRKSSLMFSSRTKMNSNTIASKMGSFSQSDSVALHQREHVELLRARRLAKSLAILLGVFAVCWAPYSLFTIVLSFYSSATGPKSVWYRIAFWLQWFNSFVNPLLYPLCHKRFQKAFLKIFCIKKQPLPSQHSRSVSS
Details: HEK293
Field: class. Source value: pKb. Ranges: low group = under 7, middle group = from 7 up to 8, high group = 8 and over

Example cases with answers are listed next.
CN1CCN(c2cc(-c3ccc(Cl)cc3)nc(N)n2)CC1 = high group
CN1CCN(c2cc(-c3ccc(F)nc3F)nc(N)n2)CC1 = high group
CN1CCN(c2nc(N)nc(-c3ccc(C#N)cc3)c2-c2ccccc2)CC1 = low group
CN1CCN(c2cc(-c3cnn(C)c3)nc(N)n2)CC1 = middle group
COc1c(-c2ccc(C#N)cc2)nc(N)nc1N1CCN(C)CC1 = low group

Please find the next compound below.
Task item: Looking at CN1CCN(c2cc(-c3cccnc3)nc(N)n2)CC1 , which class would you pick?
Reply: middle group
